SYSTEM: ZAP-70 (Homo sapiens)
Sequence (P43403 whole entry): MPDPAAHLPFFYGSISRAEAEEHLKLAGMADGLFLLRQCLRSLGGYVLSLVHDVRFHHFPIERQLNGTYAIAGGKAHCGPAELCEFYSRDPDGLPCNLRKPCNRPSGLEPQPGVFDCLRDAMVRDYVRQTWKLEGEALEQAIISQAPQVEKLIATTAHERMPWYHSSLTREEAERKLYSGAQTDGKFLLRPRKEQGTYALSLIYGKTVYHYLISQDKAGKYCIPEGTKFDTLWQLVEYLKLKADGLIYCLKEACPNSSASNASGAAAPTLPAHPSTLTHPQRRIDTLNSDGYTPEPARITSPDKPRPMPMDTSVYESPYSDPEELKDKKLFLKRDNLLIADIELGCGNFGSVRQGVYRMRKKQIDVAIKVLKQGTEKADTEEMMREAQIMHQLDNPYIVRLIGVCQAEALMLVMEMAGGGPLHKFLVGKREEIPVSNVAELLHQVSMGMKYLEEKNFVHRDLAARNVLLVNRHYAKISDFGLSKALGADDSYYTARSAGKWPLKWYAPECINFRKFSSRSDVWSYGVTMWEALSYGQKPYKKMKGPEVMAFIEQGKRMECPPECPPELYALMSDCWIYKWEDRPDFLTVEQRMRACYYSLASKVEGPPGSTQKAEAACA
PROCEDURE_DETAILS: DELFIA assay (ZAP-70 kinase, phosphorylation of biotinylated poly(glu,tyr))
Format: biochemical
CONDITION_INFO: ZAP-70 DELFIA, class symbols; read-out: Activity (IC50 in vitro)

{"COMPOUND": "CCN(CC)C[C@@H]1CCCN1C(=O)c1cc(NCc2ccccc2)nc2ccc(-c3ccc4c(c3)OCO4)cc12", "SYSTEM": "ZAP-70 (Homo sapiens)", "IC50": "1 to 10 µM"}
{"COMPOUND": "C[C@@H](c1cccc2ccccc12)N(C)c1cc(C(=O)N2CCC[C@H]2CN2CCCC2)c2cc(-c3ccc(C#N)cc3)ccc2n1", "SYSTEM": "ZAP-70 (Homo sapiens)", "IC50": "> 10 µM"}
{"COMPOUND": "O=C(c1cc(NCc2ccccc2)nc2ccc(-c3ccc4c(c3)OCO4)cc12)N1CCC[C@H]1CN1CCOCC1", "SYSTEM": "ZAP-70 (Homo sapiens)", "IC50": "1 to 10 µM"}
{"COMPOUND": "N#Cc1ccc(-c2ccc3nc(NCC4(c5cccs5)CC4)cc(C(=O)N4CCC[C@H]4CN4CCCC4)c3c2)cc1", "SYSTEM": "ZAP-70 (Homo sapiens)", "IC50": "> 10 µM"}
{"COMPOUND": "N#Cc1ccc(-c2ccc3nc(N4CCCC(c5cccc(C(F)(F)F)c5)C4)cc(C(=O)N4CCC[C@H]4CN4CCCC4)c3c2)cc1 (stereo partly drawn)", "SYSTEM": "ZAP-70 (Homo sapiens)", "IC50": "> 10 µM"}
{"COMPOUND": "CN(Cc1ccccc1)c1cc(C(=O)N2CCC[C@H]2CN2CCCC2)cc(-c2ccccc2)n1", "SYSTEM": "ZAP-70 (Homo sapiens)", "IC50": "> 10 µM"}
{"COMPOUND": "O=C(c1cc(NCc2ccc(C(F)(F)F)cc2)nc2ccc(-c3ccc4c(c3)OCO4)cc12)N1CCC(CN2CCCC2)C1 (stereo not drawn)", "SYSTEM": "ZAP-70 (Homo sapiens)", "IC50": "> 10 µM"}
{"COMPOUND": "O=C(c1cc(NCc2ccc(C(F)(F)F)cc2)nc2ccc(-c3cccc(C(F)(F)F)c3)cc12)N1CCC[C@H]1CN1CCCC1", "SYSTEM": "ZAP-70 (Homo sapiens)", "IC50": "1 to 10 µM"}
{"COMPOUND": "O=C(c1cc(Nc2ccc3cn[nH]c3c2)nc2ccccc12)N1CCC[C@H]1CN1CCCC1", "SYSTEM": "ZAP-70 (Homo sapiens)", "IC50": "> 10 µM"}
{"COMPOUND": "CC(=O)Nc1cccc(-c2ccc3nc(NCc4ccc(C(F)(F)F)cc4)cc(C(=O)N4CCC[C@H]4CN4CCCC4)c3c2)c1", "SYSTEM": "ZAP-70 (Homo sapiens)", "IC50": "> 10 µM"}
{"COMPOUND": "N#Cc1ccc(-c2ccc3nc(NCc4cccc(OC(F)(F)F)c4)cc(C(=O)N4CCC[C@H]4CN4CCCC4)c3c2)cc1", "SYSTEM": "ZAP-70 (Homo sapiens)", "IC50": "> 10 µM"}
{"COMPOUND": "O=C(c1cc(NCc2ccccn2)nc2ccc(-c3ccc4c(c3)OCO4)cc12)N1CCC[C@H]1CN1CCCC1", "SYSTEM": "ZAP-70 (Homo sapiens)", "IC50": "1 to 10 µM"}
{"COMPOUND": "CN(Cc1ccc(Cl)c(Cl)c1)c1cc(C(=O)N2CCC[C@H]2CN2CCCC2)c2cc(-c3ccc(C#N)cc3)ccc2n1", "SYSTEM": "ZAP-70 (Homo sapiens)", "IC50": "> 10 µM"}
{"COMPOUND": "Cc1ccsc1CNc1cc(C(=O)N2CCC[C@H]2CN2CCCC2)c2cc(-c3ccc(C#N)cc3)ccc2n1", "SYSTEM": "ZAP-70 (Homo sapiens)", "IC50": "> 10 µM"}
{"COMPOUND": "N#Cc1ccc(-c2ccc3nc(NCCc4ccccc4Cl)cc(C(=O)N4CCC[C@H]4CN4CCCC4)c3c2)cc1", "SYSTEM": "ZAP-70 (Homo sapiens)", "IC50": "> 10 µM"}
{"COMPOUND": "CC(CNC(=O)c1cc(C(=O)N2CCC[C@H]2CN2CCCC2)c2cc(-c3ccc4c(c3)OCO4)ccc2n1)c1ccccc1 (stereo partly drawn)", "SYSTEM": "ZAP-70 (Homo sapiens)", "IC50": "1 to 10 µM"}
{"COMPOUND": "O=C(c1cc(NCc2ccc(C(F)(F)F)cc2)nc2ccc(-c3ccc4c(c3)OCO4)cc12)N1CCCC[C@H]1CN1CCCC1", "SYSTEM": "ZAP-70 (Homo sapiens)", "IC50": "1 to 10 µM"}
{"COMPOUND": "O=C(c1cc(N2CCC[C@H]2CN2CCCC2)nc2ccc(-c3ccc4c(c3)OCO4)cc12)N1CCC[C@H]1CN1CCCC1", "SYSTEM": "ZAP-70 (Homo sapiens)", "IC50": "1 to 10 µM"}
{"COMPOUND": "N=C([C@@H]1CCCN1C(=O)c1cc(NCc2ccc(C(F)(F)F)cc2)nc2ccc(-c3ccc4c(c3)OCO4)cc12)N1CCCC1", "SYSTEM": "ZAP-70 (Homo sapiens)", "IC50": "> 10 µM"}
{"COMPOUND": "C[Si](C)(C)CCc1cc(C(=O)N2CCC[C@H]2CN2CCCC2)c2cc(-c3ccc4c(c3)OCO4)ccc2n1", "SYSTEM": "ZAP-70 (Homo sapiens)", "IC50": "> 10 µM"}
{"COMPOUND": "N=C(NC1CC1)[C@@H]1CCCN1C(=O)c1cc(NCc2ccc(C(F)(F)F)cc2)nc2ccc(-c3ccc4c(c3)OCO4)cc12", "SYSTEM": "ZAP-70 (Homo sapiens)", "IC50": "> 10 µM"}
{"COMPOUND": "O=C(c1cc(NCc2ccc(C(F)(F)F)cc2)nc2ccc(-c3ccc(C(F)(F)F)cc3)cc12)N1CCC[C@H]1CN1CCCC1 [Compound 345]", "SYSTEM": "ZAP-70 (Homo sapiens)", "IC50": "> 10 µM"}
{"COMPOUND": "N#Cc1ccc(-c2ccc3nc(NCc4cc(F)cc(F)c4)cc(C(=O)N4CCC[C@H]4CN4CCCC4)c3c2)cc1", "SYSTEM": "ZAP-70 (Homo sapiens)", "IC50": "> 10 µM"}
{"COMPOUND": "O=C(c1cc(/C=C/c2ccc(F)cc2)nc2ccc(-c3ccc4c(c3)OCO4)cc12)N1CCC[C@H]1CN1CCCC1", "SYSTEM": "ZAP-70 (Homo sapiens)", "IC50": "1 to 10 µM"}
{"COMPOUND": "C[C@H](Nc1cc(C(=O)N2CCC[C@H]2CN2CCCC2)c2cc(-c3ccc(C#N)cc3)ccc2n1)c1ccccc1", "SYSTEM": "ZAP-70 (Homo sapiens)", "IC50": "> 10 µM"}
{"COMPOUND": "O=C(c1cc(Nc2cccc(Br)c2)nc2ccc(-c3ccc4c(c3)OCO4)cc12)N1CCC[C@H]1CN1CCCC1", "SYSTEM": "ZAP-70 (Homo sapiens)", "IC50": "< 1 µM"}
{"COMPOUND": "CCN(Cc1ccc(C)cc1)C(=O)c1cc(C(=O)N2CCC[C@H]2CN2CCCC2)c2cc(-c3ccc4c(c3)OCO4)ccc2n1", "SYSTEM": "ZAP-70 (Homo sapiens)", "IC50": "1 to 10 µM"}

Numbers sourced from patent US20080119515A1.
